Ref: PubChem BioAssay

- Assay Details: yeast growth modulation, basal conditions, primary screen, YJM789 clinical isolate, OD600, 24 h (AID 1089);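 note: growth of clinical yeast isolate S. cerevisiae YJM 789 seeded 1000 cells per well; test concentration not given here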
- Condition Details: S. cerevisiae YJM789 growth, higher = more signal, called active from +8 up or from −8 down
Rule: fulfilled for z-score not less than 0.4, not fulfilled for anything less.

[
  {
    "Compound": "CCOC(=CC(=O)OC)CC(O)c1cccc(Cl)c1 (configuration not stated)",
    "Answer Label": "not fulfilled"
  }
]

q: Is the recorded value of z-score equal to or greater than 0.4 for this compound? CC[C@@H]1[C@H]2C3C(=O)N(CC)C(=O)C3CC(=O)[C@H]2[C@H](c2ccc(C)cc2)N1S(=O)(=O)c1ccc(C)cc1 (some centres not stated)
a: not fulfilled

q: Is reported z-score greater than or equal to 0.4 here: "COc1ccc([Si](C)(C)[C@H]2[C@H](CCn3cc(CCO)nn3)O[C@@]3(C(=O)N(Cc4ccc(N5C(=O)c6cccc7cccc5c67)cc4)c4ccccc43)[C@@H]2C)cc1"
a: not fulfilled
